The reader will find reported melting point values listed item by item below.

Q: Kindly indicate its recorded melting point. Item: O=C(O)Cc1c[nH]c2cc(Cl)ccc12
A: 183 to 185 °C

Q: Kindly indicate its recorded melting point. Item: Cn1cc(CC(=O)O)c2ccc(Cl)cc21
A: 130 to 132 °C (dec.)

Q: Kindly indicate its recorded melting point. Item: O=C(O)Cc1c[nH]c2cc(F)ccc12
A: 161 to 163 °C

Q: Kindly indicate its recorded melting point. Item: O=C(O)Cc1c[nH]c2cc(Br)ccc12
A: 174 to 176 °C

Q: Kindly indicate its recorded melting point. Item: Cc1[nH]c2ccc(F)cc2c1CC(=O)O
A: 182 to 184 °C

New cases:
Q: Kindly indicate its recorded melting point. Item: Cc1ccc(F)c2[nH]cc(CC(=O)O)c12
A: 162 to 164 °C (dec.)

Q: Kindly indicate its recorded melting point. Item: O=C(O)Cc1c[nH]c2c(F)cc(Cl)cc12
A: 164 to 166 °C

###

- System: MCF-7 mammary carcinoma cells
- Method: GDEPT: clonogenic survival of cells transiently transfected with the HRP gene versus untransfected cells
- Assay type: cell-based, human
- Condition Context: Homo sapiens, MCF7; MCF-7, transfected cells, 24 hours exposure; read-out: IC50 HRP+
- Protocol: Human bladder carcinoma T24 cells, MCF-7 mammary carcinoma cells (both from European Collection of Cell Cultures, Salisbury, UK), FaDu, nasopharyngeal squamous carcinoma cells (American Type Culture Collection, Manassas, Va.) were maintained in Dulbecco's modified Eagle's medium (DMEM) supplemented with 10% foetal calf serum, 2 mM L-glutamine, 100 U/ml penicillin, 100 µg/ml streptomycin, and incubated in a humidified incubator at 37° C. and 5% CO2/air. […]
Observable: pIC50
To interpret pIC50, take it as minus log10 of a concentration measured in moles per litre.

Q: Kindly indicate its recorded pIC50. Item: O=C(O)Cc1c[nH]c2ccc(F)cc12
A: 3.60

###

- Tested on: Human bladder carcinoma T24 cells
- Method: GDEPT: clonogenic survival of cells transiently transfected with the HRP gene versus untransfected cells
- Type: cell-based
- Condition Context: Homo sapiens, T-24, 24 h, T24 (normoxic), transfected cells, 24 hours exposure, estimated from survival curves; read-out: IC50 HRP+
Observable: IC50 (µM)
Expressed in µM, but write only the number.

Q: # return IC50 for O=C(O)Cc1c[nH]c2ccc(F)cc12 , test system: Human bladder carcinoma T24 cells
A: 40

###

- Tested on: MCF-7 mammary carcinoma cells
- Method: GDEPT: clonogenic survival of cells transiently transfected with the HRP gene versus untransfected cells
- Assay type: cell-based, human
- Condition Context: Homo sapiens, MCF7, 24 h, read-out: IC50 HRP+
Observable: IC50 (µM)
Expressed in µM, but write only the number.

Q: Kindly indicate its recorded IC50. Item: O=C(O)Cc1c[nH]c2ccc(Br)cc12
A: 7

###

- System: FaDu, nasopharyngeal squamous carcinoma cells
- Method: GDEPT: clonogenic survival of cells transiently transfected with the HRP gene versus untransfected cells
- Format: cell-based, human
- Condition Context: Homo sapiens, 24 h, read-out: IC50 HRP−
Observable: pIC50
To interpret pIC50, take it as minus log10 of a concentration measured in moles per litre.

Q: Kindly indicate its recorded pIC50. Item: O=C(O)Cc1c[nH]c2ccc(Br)cc12 [Compound 5-bromo, 5-bromo-indole-3-acetic acid]
A: 3.22
